- Test system: Vero E6 infected with SARS-CoV-2
- protocol notes: inhibition of SARS-CoV-2 cytopathic effect; higher = more antiviral protection, active = above 15
- reported conditions: 1 nM; 48 h
Quick reference for inhibition of SARS-CoV-2 cytopathic effect among some compounds
measurement kind: inhibition of SARS-CoV-2 cytopathic effect (%)

>>> recorded_value("CO[C@@H]1[C@@H](O[C@@H]2O[C@H](C)[C@@H](O[C@H]3C[C@@](C)(O)[C@@H](OC(=O)CC(C)C)[C@H](C)O3)[C@H](N(C)C)[C@H]2O)[C@@H](CC=O)C[C@@H](C)[C@@H](O)/C=C/C=C/C[C@@H](C)OC(=O)C[C@H]1OC(C)=O [josamycin]")
2.65
>>> recorded_value("CC(C)[C@H](O)C(=O)N[C@@H](C)C(=O)N[C@@H]1C(=O)N(C)CCc2ccccc21 [semagacestat]")
-0.47
>>> recorded_value("CN[C@H](CNC(=O)N1CCC[C@@H]([C@@H](OCCNC(=O)OC)c2cccc(Cl)c2)C1)C[C@H]1CCCOC1")
1.34
>>> recorded_value("COc1[nH]c2ccc(F)cc2c1C(=O)OCC1CCN(CCNS(C)(=O)=O)CC1")
2
>>> recorded_value("CCC(N)C(O)c1ccc(O)c(O)c1 (stereo not given) [ethylnorepinephrine]")
-0.61
>>> recorded_value("Nc1ncnc2c1ncn2[C@@H]1O[C@H](CO)C[C@H]1O [cordycepin]")
-1.1
>>> recorded_value("C=C[C@@](C)(/C=C/c1ccc(O)cc1)CCC=C(C)C [bakuchiol]")
1.64
>>> recorded_value("CN1C2C=C(c3sccc3Br)CC1CC2 (stereo not given)")
24.2
>>> recorded_value("CN=c1nc(-c2ccccc2)n(-c2ccccc2)s1")
1.73
>>> recorded_value("CC(C)N(CCC(=O)c1ccc2ccccc2c1)Cc1ccccc1")
0.32

Recorded values, source the supplement of paper PMC13380429.
